# TARGET_OR_SYSTEM: Human GLP-1 receptor (Homo sapiens)
# Construct: expressed in transfected cells
# Sequence (P43220 24-463): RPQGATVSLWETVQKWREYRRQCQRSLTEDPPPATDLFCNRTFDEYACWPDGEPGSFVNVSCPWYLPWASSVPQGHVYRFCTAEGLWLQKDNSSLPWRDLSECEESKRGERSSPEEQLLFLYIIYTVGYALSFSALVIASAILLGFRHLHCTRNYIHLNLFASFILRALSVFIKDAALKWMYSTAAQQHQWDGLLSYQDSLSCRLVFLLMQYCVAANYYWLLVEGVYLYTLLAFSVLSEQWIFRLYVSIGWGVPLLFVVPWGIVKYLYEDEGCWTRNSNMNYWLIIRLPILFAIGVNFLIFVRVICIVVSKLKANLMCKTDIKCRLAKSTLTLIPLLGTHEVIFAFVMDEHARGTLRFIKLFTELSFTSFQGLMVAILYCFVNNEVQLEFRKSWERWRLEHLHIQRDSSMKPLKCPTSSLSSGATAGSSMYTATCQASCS
# TEST_DESCRIPTION: Measurement of GLP-1 receptor agonist activity (cAMP assay)
# Type: cell-based
# CONDITION_CONTEXT: cAMP increase in GLP-1 R/CHO-K1 cells; 2 nM human GLP-1 (7-36) = 100%, DMSO only = 0%
TEST_READOUT: EC50 (nM)

A selection of reference data follows.
// query EC50 value for entry CC1c2cc(OCc3ccc(Cl)cc3F)ccc2CCN1Cc1nc2ccc(C(=O)O)cc2n1C[C@@H]1CCO1 (stereo partly shown) 109

// query EC50 value for entry COc1cc(C(=O)O)cc2c1nc(CN1CCc3cc(C(F)(F)F)c(OCc4ccc(F)cc4)cc3[C@@H]1C)n2C[C@@H]1CCO1 0.429

1: N#Cc1ccc(COc2nc3c(cc2C(F)(F)F)CCN(Cc2nc4ccc(C(=O)O)cc4n2C[C@@H]2CCO2)C3)c(F)c1
2: C[C@H]1c2nc(OCc3ccc(Cl)cc3F)c(Cl)cc2CCN1Cc1nc2ccc(C(=O)O)cc2n1C[C@@H]1CCO1
Which numeric EC50 is bigger, that of 1 or that of 2 ? Answer with the label corresponding to your selection. 1
(1: 1.66 nM, 2: 0.0521 nM)
